SYSTEM_NAME: Keap1/Nrf2 (Homo sapiens, UniProt Q14145+Q16236)
Sequence (Q16236 whole entry): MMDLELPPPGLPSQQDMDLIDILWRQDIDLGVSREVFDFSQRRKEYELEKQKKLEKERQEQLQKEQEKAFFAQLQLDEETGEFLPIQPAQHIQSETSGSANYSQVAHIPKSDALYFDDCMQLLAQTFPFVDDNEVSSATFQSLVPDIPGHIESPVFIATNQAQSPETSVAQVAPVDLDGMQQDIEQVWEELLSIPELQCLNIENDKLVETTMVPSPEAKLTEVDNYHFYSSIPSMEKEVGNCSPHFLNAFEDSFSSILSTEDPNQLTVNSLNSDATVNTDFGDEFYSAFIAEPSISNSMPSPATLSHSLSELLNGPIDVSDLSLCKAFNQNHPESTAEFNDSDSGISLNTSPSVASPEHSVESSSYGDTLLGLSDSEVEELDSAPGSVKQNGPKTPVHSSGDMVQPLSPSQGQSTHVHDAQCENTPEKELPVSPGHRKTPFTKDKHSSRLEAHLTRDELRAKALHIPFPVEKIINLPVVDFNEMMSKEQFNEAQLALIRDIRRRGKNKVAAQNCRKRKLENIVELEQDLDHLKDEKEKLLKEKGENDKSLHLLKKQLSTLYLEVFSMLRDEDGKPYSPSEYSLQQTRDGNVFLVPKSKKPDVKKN
Sequence (Q14145 whole entry): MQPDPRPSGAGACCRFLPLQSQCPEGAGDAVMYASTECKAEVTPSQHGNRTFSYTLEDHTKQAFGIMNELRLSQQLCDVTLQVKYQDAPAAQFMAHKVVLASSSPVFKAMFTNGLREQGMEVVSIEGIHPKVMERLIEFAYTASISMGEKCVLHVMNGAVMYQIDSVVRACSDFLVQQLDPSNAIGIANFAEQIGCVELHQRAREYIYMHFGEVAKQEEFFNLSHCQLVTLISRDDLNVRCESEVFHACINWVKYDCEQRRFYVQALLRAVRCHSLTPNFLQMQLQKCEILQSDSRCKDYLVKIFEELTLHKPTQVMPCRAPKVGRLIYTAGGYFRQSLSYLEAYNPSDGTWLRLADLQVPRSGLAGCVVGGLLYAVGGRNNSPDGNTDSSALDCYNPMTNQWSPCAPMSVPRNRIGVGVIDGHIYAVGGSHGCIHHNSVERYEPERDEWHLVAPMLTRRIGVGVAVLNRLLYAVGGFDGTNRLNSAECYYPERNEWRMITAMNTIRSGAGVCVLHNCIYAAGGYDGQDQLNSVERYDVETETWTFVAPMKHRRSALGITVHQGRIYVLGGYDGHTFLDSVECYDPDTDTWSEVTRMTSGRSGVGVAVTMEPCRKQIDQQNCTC
EXPERIMENT_SUMMARY: Binding affinity to human Keap1-Nrf2 protein-protein interaction assessed as dissociation constant
pKd: −log10 of the molar value.
PROPERTY_LABEL: pKd

1. [H]/N=C(\N/C(=N/[H])NCCCCCCNC(=N)NC(=N)Nc1ccc(Cl)cc1)Nc1ccc(Cl)cc1 = > 4.52

* * *

Test system: BV-2
EXPERIMENT_SUMMARY: Antiinflammatory activity against mouse BV-2 cells assessed as reduction in LPS-induced NO production at 20 uM incubated for 24 hrs by Griess reagent based assay relative to control
Type: functional
Design: scale not given: the % may be the effect or the level left
Examples of compounds with documented Activity follow.
PROPERTY_LABEL: Activity (%)

1. COc1ccccc1S(=O)(=O)/C=C/c1ccccc1F = 24
2. COc1ccccc1S(=O)(=O)/C=C/c1ccccc1Cl = 15.2
3. COc1ccccc1S(=O)(=O)/C=C/c1ccccc1C(F)(F)F = 29.9
4. COc1ccccc1S(=O)(=O)/C=C/c1ccc(Cl)cc1 = 31.5
5. COc1ccccc1S(=O)(=O)/C=C/c1cccc(Cl)c1 = 32.1
